src = the supplement of paper PMC10899765

Tested on: MCF10A
Test: one-nucleolus phenotype percent effect (relative to siNT 0% and siNOL11 100%); higher = more cells with one nucleolus (ribosome biogenesis inhibition)
Details: 20 nM; 72 h
Consider the following sequences; for each one, report its one-nucleolus phenotype percent effect.
Numbers only, in %.

Look over these answered cases.
AAAACUGUAAUUACUUUUGUAC [hsa-miR-548g-3p]: -25.2
CAGGGUCAGCUGAGCAUG [hsa-miR-1178-5p]: 9.85
UGGGGUAAGGAUAGGAGGGUCA [hsa-miR-6881-5p]: 4.74
GUUUAACCUUUUGCCUGUUGG [hsa-miR-552-5p]: -29.8
AUCACACAAAGGCAACUUUUGU [hsa-miR-377-3p]: -9.96

Please report one-nucleolus phenotype percent effect for every entry that follows.
1. UGAGGACAGGGCAAAUUCACGA [hsa-miR-5004-5p]
2. AGCCUGGAAGCUGGAGCCUGCAGU [hsa-miR-1254]
3. CUGACUGAAUAGGUAGGGUCAUU [hsa-miR-3136-5p]
4. CUGGGAGGUGUGAUAUUGUGGU [hsa-miR-3689b-3p]
5. UUAGCUUAAGGAGUACCAGAUC [hsa-miR-5579-3p]
6. AGGCACGGUGUCAGCAGGC [hsa-miR-564]
7. UCAGCUGGCCCUCAUUUC [hsa-miR-1207-3p]

A)
1. 10
2. 10.5
3. 24.8
4. 33.2
5. -7.52
6. 11.4
7. 65
